molecular target: Glucose-6-Phosphate Dehydrogenase (G6PD) (Homo sapiens, UniProt P11413); test: residual activity of purified recombinant enzyme (NADPH at […] nm) after […] h incubation; supported by CD and intrinsic fluorescence; assay type: biochemical; settings: read-out: IC50
Sequence (P11413 2-515): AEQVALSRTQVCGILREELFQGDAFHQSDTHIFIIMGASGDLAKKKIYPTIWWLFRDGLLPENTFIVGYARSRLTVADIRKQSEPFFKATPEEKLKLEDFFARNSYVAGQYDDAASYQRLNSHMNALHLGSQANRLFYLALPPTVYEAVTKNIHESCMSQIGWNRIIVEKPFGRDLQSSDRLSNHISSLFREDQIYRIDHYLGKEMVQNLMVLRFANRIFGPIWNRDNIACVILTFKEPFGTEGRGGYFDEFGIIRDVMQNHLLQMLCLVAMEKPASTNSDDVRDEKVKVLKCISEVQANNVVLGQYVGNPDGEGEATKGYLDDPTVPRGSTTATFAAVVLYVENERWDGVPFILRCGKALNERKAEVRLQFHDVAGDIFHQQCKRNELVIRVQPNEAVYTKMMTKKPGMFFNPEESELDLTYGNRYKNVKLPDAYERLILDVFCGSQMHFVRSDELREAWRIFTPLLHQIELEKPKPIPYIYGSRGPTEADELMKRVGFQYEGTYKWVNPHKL
reportedProperty: IC50 (µM)

* O=[N+]([O-])c1ccc2nc([S+]([O-])Cc3ccccn3)[nH]c2c1 (stereo not shown) | 40

----------
target: Glucose-6-Phosphate Dehydrogenase (G6PD) (Homo sapiens, UniProt P11413); assay: residual activity of purified recombinant enzyme (NADPH at […] nm) after […] h incubation; supported by CD and intrinsic fluorescence; assay type: biochemical
reportedProperty: IC50

• O=C(Nc1ccc(Cl)cc1)Nc1ncc([N+](=O)[O-])s1 = 121 µM

----------
target: Glucose-6-Phosphate Dehydrogenase (G6PD) (Homo sapiens); assay: residual activity of purified recombinant enzyme (NADPH at […] nm) after […] h incubation; supported by intrinsic fluorescence (minimal CD change); assay type: biochemical
reportedProperty: IC50 (µM)

* Cc1cnc(C[S+]([O-])c2nc3cc([N+](=O)[O-])ccc3[nH]2)c(C)c1OCC(F)(F)F (stereo not shown) | 42
